B1: OR4K15 (parent)
chain: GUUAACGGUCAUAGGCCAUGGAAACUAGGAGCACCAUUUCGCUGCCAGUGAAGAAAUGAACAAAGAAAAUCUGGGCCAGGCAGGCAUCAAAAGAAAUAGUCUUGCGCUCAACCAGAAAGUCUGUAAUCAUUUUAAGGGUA

variants of: B1; test: self-cleavage, relative activity (ratio to wild type); higher = more cleavage; in vitro, sequencing; the parent is a self-cleaving ribozyme
// reported self-cleavage per item

Example entries and their recorded answers appear below.
A117U A129U: 0.62
U37C A66C: 1.34
A47U A98U: 1.79
A78C U130C: 0.21
A67G U108C: 0.02
A78G A140U: 0.36
A24G C128U: 0.76
A51G C128U: 2.26

QUERY: // query self-cleavage value for entry U130G A135G
RESULT: 1.08

QUERY: // query self-cleavage value for entry U12C A91G
RESULT: 0.8

QUERY: // query self-cleavage value for entry U2A G44C
RESULT: 0.79

QUERY: // query self-cleavage value for entry A24G U122G
RESULT: 2.31

QUERY: // query self-cleavage value for entry A90G A134G
RESULT: 1.35

QUERY: // query self-cleavage value for entry U2C U127C
RESULT: 0.9

QUERY: // query self-cleavage value for entry A23G U120A
RESULT: 0.47

QUERY: // query self-cleavage value for entry A129G U139A
RESULT: 0.81

QUERY: // query self-cleavage value for entry A110U U131C
RESULT: 0.65
